The reported numbers originate from ChEMBL document CHEMBL5257157.

test system: Sindbis virus; assay: Antiviral activity against Sindbis virus infected in human Huh-7 cells assessed as inhibition of virus-induced cytopathogenic effect incubated for 3 to 7 days by MTS assay; format: functional, organism-based
measure.name: EC50

# example entries with known answers
- CCN(CC)c1ccc2cc(-c3nc4ccc(C5=NCCCN5)cc4s3)c(=O)oc2c1.Cl: > 100 µM
- Cc1ccc2oc(=O)c(-c3nc4cc(C5=NCCCN5)ccc4[nH]3)c(Cl)c2c1: > 100 µM
- O=c1oc2ccccc2c(Cl)c1-c1nc2cc(C3=NCCN3)ccc2[nH]1: > 100 µM

Hey, quick one: what's EC50 for each of these?
1. CCN(CC)c1ccc2cc(-c3nc4cc(C5=NCCN5)ccc4[nH]3)c(=O)oc2c1.Cl
2. CCC(CC)COC(=O)[C@H](C)N[P@](=O)(OC[C@H]1O[C@@](C#N)(c2ccc3c(N)ncnn23)[C@H](O)[C@@H]1O)Oc1ccccc1 [REMDESIVIR]
3. O=c1oc2ccc(Br)cc2c(Cl)c1-c1nc2cc(C3=NCCCN3)ccc2[nH]1
4. O=c1oc2ccc(Br)cc2c(Cl)c1-c1nc2cc(C3=NCCN3)ccc2[nH]1
5. CCN(CC)c1ccc2cc(-c3nc4ccc(C5=NCCN5)cc4s3)c(=O)oc2c1
6. O=c1oc2ccccc2c(Cl)c1-c1nc2cc(C3=NCCCN3)ccc2[nH]1
7. CCN(CC)c1ccc2cc(-c3nc4cc(C5=NCCCN5)ccc4[nH]3)c(=O)oc2c1

Return:
1. > 100 µM
2. > 10 µM
3. 59 µM
4. > 100 µM
5. > 100 µM
6. > 100 µM
7. > 100 µM

Enquiry: Record request: EC50 value, item Cc1ccc2oc(=O)c(-c3nc4cc(C5=NCCN5)ccc4[nH]3)c(Cl)c2c1
Return: > 100 µM

* * *

test system: Influenza A virus; experiment: Antiviral activity against influenza virus H3N2 infected in dog MDCK cells assessed as inhibition of virus-induced cytopathogenic effect incubated for 3 to 7 days by MTS assay; type: functional, organism-based
Give measured EC50 for each item. Keep answers brief.

# example entries with known answers
- NC(=O)c1ncn([C@@H]2O[C@H](CO)[C@@H](O)[C@H]2O)n1: 4 µM
- O=c1oc2ccc(Br)cc2c(Cl)c1-c1nc2cc(C3=NCCCN3)ccc2[nH]1: 51 µM
- CCN(CC)c1ccc2cc(-c3nc4ccc(C5=NCCCN5)cc4s3)c(=O)oc2c1.Cl: > 100 µM
- O=c1oc2ccc(Br)cc2c(Cl)c1-c1nc2cc(C3=NCCN3)ccc2[nH]1: > 100 µM
- O=c1oc2ccccc2c(Cl)c1-c1nc2cc(C3=NCCN3)ccc2[nH]1: > 100 µM

Hey, quick one: what's EC50 for each of these?
1. CCN(CC)c1ccc2cc(-c3nc4ccc(C5=NCCN5)cc4s3)c(=O)oc2c1
2. Cc1ccc2oc(=O)c(-c3nc4cc(C5=NCCCN5)ccc4[nH]3)c(Cl)c2c1
3. CCN(CC)c1ccc2cc(-c3nc4cc(C5=NCCN5)ccc4[nH]3)c(=O)oc2c1.Cl
4. CCN(CC)c1ccc2cc(-c3nc4cc(C5=NCCCN5)ccc4[nH]3)c(=O)oc2c1

Return:
["> 100 µM", "> 100 µM", "> 100 µM", "> 100 µM"]
